Source listed as the RNAGym collection of RNA variant scans (doi:10.7554/elife.80360).

B1: HDV Ribozyme (parent)
chain: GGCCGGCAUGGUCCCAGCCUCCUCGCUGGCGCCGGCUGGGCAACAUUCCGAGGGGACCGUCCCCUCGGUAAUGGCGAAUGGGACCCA

variants of: B1; assay: self-cleavage, relative activity (ratio to wild type); higher = more cleavage; co-transcriptional
Recorded self-cleavage values for a group of variants are listed next.
Give your answer as a number; write no unit.

Would you please look over these solved cases?
G5U A45G    0.692
G2A A8U    0.0432
G6U U37C    0.943
U27G G74U    0.151
G2U U23G    0.0287
G50U G53C    0.437
G28C G74A    0.108
C75A G76A    0.166
A42C G53U    0.231
C3U U12C    0.107

Query (variant): C15U U47C ; field requested: self-cleavage
0.779

Query (variant): G59C G73U ; field requested: self-cleavage
0.379

Query (variant): C24G C44A ; field requested: self-cleavage
0.0297

Query (variant): G17A G54A ; field requested: self-cleavage
0.786

Query (variant): G80C C86A ; field requested: self-cleavage
0.213
